- assay_notes: Plasma and urine pharmacokinetics of napabucasin in patients
- Assay type: in vivo, Japanese patients
- applied_conditions: human, plasma, oral, 720 mg, plasma, Cycle 2 (Day 29), Cohort 3 (1440 mg/day, 720 mg BID), n = 5; read-out: AUC0–24, range
measured_metric: AUC(0-t)

[[record]]
compound = "CC(=O)c1cc2c(o1)C(=O)c1ccccc1C2=O [napabucasin]"
reported = "4480 to 20200 ng·h/mL"


###

- assay_notes: Plasma and urine pharmacokinetics of napabucasin in patients
- Type: in vivo, Japanese patients
- applied_conditions: human, plasma, oral, 480 mg, plasma, Cycle 1 (Day 1), Cohort 2 (960 mg/day, 480 mg BID), n = 4; read-out: AUC0–24, range
measured_metric: AUC(0-t)

[[record]]
chem_smiles = "CC(=O)c1cc2c(o1)C(=O)c1ccccc1C2=O"
reported = "1200 to 6360 ng·h/mL"


###

- assay_notes: Plasma and urine pharmacokinetics of napabucasin in patients
- Assay type: in vivo, Japanese patients
- applied_conditions: human, plasma, oral, 480 mg, plasma, Cycle 1 (Day 1), Cohort 2 (960 mg/day, 480 mg BID), n = 4; read-out: Cmax, range
measured_metric: Cmax

[[record]]
molecule = "CC(=O)c1cc2c(o1)C(=O)c1ccccc1C2=O [napabucasin]"
reported = "199 to 719 ng/mL"


###

- assay_notes: Plasma and urine pharmacokinetics of napabucasin in patients
- Format: in vivo, Japanese patients
- applied_conditions: human, plasma, oral, 480 mg, plasma, Cycle 2 (Day 29), Cohort 2 (960 mg/day, 480 mg BID), n = 3; read-out: Cmax, range
measured_metric: Cmax

[[record]]
chem_smiles = "CC(=O)c1cc2c(o1)C(=O)c1ccccc1C2=O"
measured_metric = "Cmax"
reported = "391 to 477 ng/mL"


###

- assay_notes: Plasma and urine pharmacokinetics of napabucasin in patients
- Assay type: in vivo, Japanese patients
- applied_conditions: human, plasma, oral, 240 mg, plasma, Cycle 2 (Day 29), Cohort 1 (480 mg/day, 240 mg BID), n = 3; read-out: Cmax, range
measured_metric: Cmax

[[record]]
chem_smiles = "CC(=O)c1cc2c(o1)C(=O)c1ccccc1C2=O"
measured_metric = "Cmax"
reported = "472 to 652 ng/mL"


###

- assay_notes: Plasma and urine pharmacokinetics of napabucasin in patients
- Type: in vivo, Japanese patients
- applied_conditions: human, plasma, oral, 720 mg, plasma, Cycle 1 (Day 1), Cohort 3 (1440 mg/day, 720 mg BID), n = 7; read-out: AUC0–∞, range
measured_metric: AUC(0-inf)

[[record]]
chem_smiles = "CC(=O)c1cc2c(o1)C(=O)c1ccccc1C2=O"
measured_metric = "AUC(0-inf)"
reported = "3870 to 14800 ng·h/mL"


###

- assay_notes: Plasma and urine pharmacokinetics of napabucasin in patients
- Assay type: in vivo, Japanese patients
- applied_conditions: human, plasma, oral, 240 mg, plasma, Cycle 1 (Day 1), Cohort 1 (480 mg/day, 240 mg BID), n = 3; read-out: t1/2, range
measured_metric: half-life

[[record]]
compound = "CC(=O)c1cc2c(o1)C(=O)c1ccccc1C2=O [napabucasin]"
reported = "5 to 25 h"


###

- assay_notes: Plasma and urine pharmacokinetics of napabucasin in patients
- Assay type: in vivo, Japanese patients
- applied_conditions: human, plasma, oral, 720 mg, plasma, Cycle 2 (Day 29), Cohort 3 (1440 mg/day, 720 mg BID), n = 5; read-out: tmax, range
measured_metric: Tmax

[[record]]
chem_smiles = "CC(=O)c1cc2c(o1)C(=O)c1ccccc1C2=O"
measured_metric = "Tmax"
reported = "2 to 4 h"


Origin of values: paper PMC7188713
